target: human α7 nicotinic acetylcholine receptor (HEK cell line stably expressing human RIC-3 and human α7) (Homo sapiens); construct: host or cells: HEK cell line (PrecisION hnAChR α7/RIC-3); assay: Automated patch-clamp electrophysiology functional assay (Assay A), IonFlux HT, whole-cell population patch; format: cell-based; conditions: automated patch-clamp electrophysiology functional assay (Assay A); read-out: α7 nAChR EC50
pEC50: −log10 of the molar value.
Measured attribute: pEC50

1. NS(=O)(=O)N1CCC2(CC1)C[C@H]2c1noc(-c2cc(-n3ccnc3)ncc2C(F)(F)F)n1    5.37

[I] CC(C)(C)n1nccc1-c1nc([C@@H]2C(F)(F)C23CCN(S(N)(=O)=O)CC3)no1
[II] COc1ccc(Cl)cc1-c1noc(C2CC23CCN(S(=O)(=O)CCc2ccccc2)CC3)n1 (racemic)
Consider entries I and II . Which has the numerically lower pEC50? Please respond with the label that marks your chosen entry.
II
(II: 5.52, I: 6.60)

[P] NS(=O)(=O)N1CCC2(CC1)C[C@H]2c1noc(-c2ccccc2OC(F)(F)F)n1
[Q] NS(=O)(=O)N1CCC2(CC1)[C@H](c1nsc(-c3ccc(F)cc3C(F)(F)F)n1)C2(F)F (stereo in doubt)
[R] Cn1nc(C(F)(F)F)cc1-c1nc([C@@H]2C(F)(F)C23CCN(S(N)(=O)=O)CC3)no1
// ascending sort on recorded pEC50 Sort the labels as requested; that list is your answer.
Q, R, P

###

target: human α7 nicotinic acetylcholine receptor (HEK cell line stably expressing human RIC-3 and human α7) (Homo sapiens, UniProt P36544); construct: host or cells: HEK cell line (PrecisION hnAChR α7/RIC-3); experiment: Automated patch-clamp electrophysiology functional assay (Assay A), IonFlux HT, whole-cell population patch; format: cell-based; details: automated patch-clamp electrophysiology functional assay (Assay A); read-out: α7 nAChR EC50
Sequence (P36544 23-502): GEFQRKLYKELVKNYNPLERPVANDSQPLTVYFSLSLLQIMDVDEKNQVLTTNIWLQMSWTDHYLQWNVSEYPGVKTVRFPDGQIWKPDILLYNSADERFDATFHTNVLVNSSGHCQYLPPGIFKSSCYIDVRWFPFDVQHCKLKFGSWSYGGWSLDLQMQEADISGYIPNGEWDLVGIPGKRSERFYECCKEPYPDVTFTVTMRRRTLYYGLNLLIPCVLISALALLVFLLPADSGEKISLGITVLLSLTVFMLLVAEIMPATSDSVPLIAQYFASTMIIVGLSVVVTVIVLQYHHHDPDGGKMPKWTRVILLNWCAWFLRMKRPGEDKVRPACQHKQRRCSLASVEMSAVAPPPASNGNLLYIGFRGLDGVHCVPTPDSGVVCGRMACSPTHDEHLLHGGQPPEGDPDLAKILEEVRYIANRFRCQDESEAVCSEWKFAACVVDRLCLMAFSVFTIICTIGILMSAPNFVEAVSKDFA
Measured attribute: EC50 (nM)

1. CCn1cc(-c2nc([C@@H]3C(F)(F)C34CCN(S(N)(=O)=O)CC4)no2)c(C2CC2)n1 [Example E37]    78
2. Cc1cccc(C)c1Cc1nc([C@@H]2CC23CCN(S(N)(=O)=O)CC3)no1 [Example E6]    930

[a] COc1ccc(-c2nc([C@@H]3CC34CCN(S(N)(=O)=O)CC4)no2)cc1 [Example D13]
[b] NS(=O)(=O)N1CCC2(CC1)C[C@H]2c1nc(-c2ccc(F)cc2C(F)(F)F)no1 [Example 5]
Pick one: a or b . Which has the bigger EC50 number? Identify your pick by its label.
b

###

Biological target: human α7 nicotinic acetylcholine receptor (HEK cell line stably expressing human RIC-3 and human α7) (Homo sapiens)
Construct: host or cells: HEK cell line (PrecisION hnAChR α7/RIC-3)
Assay: Automated patch-clamp electrophysiology functional assay (Assay A), IonFlux HT, whole-cell population patch
Format: cell-based
Details: automated patch-clamp electrophysiology functional assay (Assay A); read-out: α7 nAChR EC50
Method: The α7 nAChR positive allosteric modulator (PAM) activity of the present compounds may be tested using assays known in the art. […] The assay was performed using the IonFlux HT in a whole-cell, population patch configuration. See Golden et al. Assay Drug Dev. Technol. […] The compounds were assessed for their ability to modulate the function of the human 7 nAChR stably expressed in a HEK cell line both in the presence, and in the absence of the natural 7 agonist acetylcholine. […]
Measured attribute: EC50 (µM)

Some compounds with known EC50 results, for comparison:
1. NS(=O)(=O)N1CCC2(CC1)[C@H](c1noc(-c3cnn4c3CSC4)n1)C2(F)F    1.2
2. NS(=O)(=O)N1CCC2(CC1)[C@H](c1noc(-c3cnn4c3CCC4)n1)C2(F)F    1.1

[A] NS(=O)(=O)N1CCC2(CC1)C[C@H]2c1noc(-c2ccccc2-n2cccn2)n1
[B] NS(=O)(=O)N1CCC2(CC1)C[C@H]2c1noc(-c2cccc(C(F)(F)F)n2)n1
Looking only at measured EC50, which entry is lower, A or B ? Which one? Tell me its label.
A
